We begin with a simple list: items and their reported residual activity.
# target desc: MUSK (human) (UniProt O15146)
# Sequence (O15146 whole entry, looked up): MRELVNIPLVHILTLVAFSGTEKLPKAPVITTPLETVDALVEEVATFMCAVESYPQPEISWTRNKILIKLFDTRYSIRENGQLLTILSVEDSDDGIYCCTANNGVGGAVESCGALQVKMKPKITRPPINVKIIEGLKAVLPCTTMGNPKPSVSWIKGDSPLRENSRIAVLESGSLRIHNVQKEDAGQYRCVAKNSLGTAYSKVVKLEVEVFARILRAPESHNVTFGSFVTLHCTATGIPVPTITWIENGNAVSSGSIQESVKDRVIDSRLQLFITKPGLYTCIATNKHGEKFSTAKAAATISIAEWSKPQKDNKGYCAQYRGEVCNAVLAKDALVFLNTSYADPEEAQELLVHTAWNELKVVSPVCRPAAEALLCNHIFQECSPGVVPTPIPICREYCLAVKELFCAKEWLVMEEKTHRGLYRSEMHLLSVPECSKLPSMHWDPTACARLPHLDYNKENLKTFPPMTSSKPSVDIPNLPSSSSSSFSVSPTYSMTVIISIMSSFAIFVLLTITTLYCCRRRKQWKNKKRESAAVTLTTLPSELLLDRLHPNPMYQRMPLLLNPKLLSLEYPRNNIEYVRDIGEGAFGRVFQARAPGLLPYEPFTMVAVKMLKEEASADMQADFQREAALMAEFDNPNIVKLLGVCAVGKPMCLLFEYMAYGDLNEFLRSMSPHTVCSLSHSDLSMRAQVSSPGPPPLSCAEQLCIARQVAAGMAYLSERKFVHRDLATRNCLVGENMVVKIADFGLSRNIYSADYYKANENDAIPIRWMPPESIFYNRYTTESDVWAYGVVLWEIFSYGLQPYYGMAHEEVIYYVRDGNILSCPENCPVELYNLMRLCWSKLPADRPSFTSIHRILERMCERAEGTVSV
# experimental details: radiometric filter-binding kinase assay, Kinase HotSpot
# details: compound 0.5 µM; ATP 10 µM
property: residual activity (%)

> print(dat)
                                    molecule                    target.desc  assay.value
 1    Clc1ccc(Nc2nnc(Cc3ccncc3)c3ccccc23)cc1  MUSK (human) (UniProt O15146)          105
 2  CC(C)[C@H](CO)Nc1nc(Nc2cccc(Cl)c2)c2ncn(C(C)C)c2n1  MUSK (human) (UniProt O15146)         56.8
 3  Nc1n[nH]c2nnc(-c3c(-c4ccccc4)nn4ccccc34)cc12  MUSK (human) (UniProt O15146)         96.8
 4  NC(=O)c1ccc(N(C(N)=O)c2c(F)cccc2F)nc1-c1ccc(F)cc1F  MUSK (human) (UniProt O15146)          102
 5  Cc1ccc(NC(=O)c2ccc(CN3CCN(C)CC3)cc2)cc1Nc1nc(-c2cccnc2)cs1  MUSK (human) (UniProt O15146)           99
 6  O=c1cc(-c2cccc3c2Sc2ccccc2S3)oc(N2CCOCC2)c1  MUSK (human) (UniProt O15146)         89.1
 7  C#Cc1cccc(Nc2ncnc3cc(OCCOC)c(OCCOC)cc23)c1  MUSK (human) (UniProt O15146)         94.6
 8  CC(C)(C)c1nc2c3ccc(F)cc3c3c(=O)[nH]ccc3c2[nH]1  MUSK (human) (UniProt O15146)         81.7
 9  CSc1nc(-c2ccc(F)cc2)c(-c2ccnc(NC(C)c3ccccc3)c2)[nH]1 (centres undefined)  MUSK (human) (UniProt O15146)          101
10      O=C(Nc1ccc(Cl)cc1)c1ccccc1NCc1ccncc1  MUSK (human) (UniProt O15146)         95.9
11     O=c1cc(N2CCNCC2)oc2c(-c3ccccc3)cccc12  MUSK (human) (UniProt O15146)          103
12  Nc1nc(Nc2ccc(S(N)(=O)=O)cc2)nn1C(=S)Nc1c(F)cccc1F  MUSK (human) (UniProt O15146)         8.02
13  Oc1ccc(-c2nc(-c3ccc(F)cc3)c(-c3ccncc3)[nH]2)cc1  MUSK (human) (UniProt O15146)         86.8
14   O=C1Nc2ccccc2/C1=C\c1c(Cl)[nH]c2ccccc12  MUSK (human) (UniProt O15146)         96.4
15  CCCNC(=O)Nc1ccc(Oc2ncnc3cc(OC)c(OC)cc23)cc1Cl  MUSK (human) (UniProt O15146)          101
16  O=C1Nc2cc(Br)ccc2/C1=C1/Nc2ccccc2/C1=N\O  MUSK (human) (UniProt O15146)         84.5
17  O=C(NC(NC(=S)Nc1ccc(F)c([N+](=O)[O-])c1)C(Cl)(Cl)Cl)C(c1ccccc1)c1ccccc1 (centres undefined)  MUSK (human) (UniProt O15146)          106
18  Nc1nc(Nc2ccc(S(N)(=O)=O)cc2)nn1C(=O)c1c(F)cccc1F  MUSK (human) (UniProt O15146)         83.1
19  CS(=O)c1ccc(-c2nc(-c3ccc(F)cc3)c(-c3ccncc3)[nH]2)cc1 (centres undefined)  MUSK (human) (UniProt O15146)         90.3
